Quick note: these are IC50 numbers for system: human adrenergic β2 receptor (Homo sapiens)
Sequence (P07550 whole entry): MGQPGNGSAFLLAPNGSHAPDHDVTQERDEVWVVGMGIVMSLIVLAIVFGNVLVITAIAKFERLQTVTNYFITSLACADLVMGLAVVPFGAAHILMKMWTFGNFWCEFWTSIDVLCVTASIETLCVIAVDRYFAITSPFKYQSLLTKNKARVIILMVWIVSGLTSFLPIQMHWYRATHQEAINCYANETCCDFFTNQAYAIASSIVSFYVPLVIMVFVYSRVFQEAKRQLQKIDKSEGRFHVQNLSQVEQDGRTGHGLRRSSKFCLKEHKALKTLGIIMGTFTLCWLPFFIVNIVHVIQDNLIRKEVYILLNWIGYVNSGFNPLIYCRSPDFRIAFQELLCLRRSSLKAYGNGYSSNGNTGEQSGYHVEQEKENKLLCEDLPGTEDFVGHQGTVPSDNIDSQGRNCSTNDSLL
assay-metric: IC50 (nM)

{"line-notation": "COc1cc(NC(=O)CCCc2cccc(C3(C(=O)O[C@H]4CN5CCC4CC5)CCCCC3)c2)c(Cl)cc1CNC[C@H](O)c1ccc(O)c2[nH]c(=O)ccc12", "assay-metric": "IC50", "unit-of-measure": "nM", "measured-value": 3}
{"line-notation": "COc1cc(NC(=O)CCCc2cccc(C3(C(=O)OCC4CCNCC4)CCCCC3)c2)c(Cl)cc1CNC[C@H](O)c1ccc(O)c2[nH]c(=O)ccc12", "assay-metric": "IC50", "unit-of-measure": "nM", "measured-value": 2.2}
{"line-notation": "COc1cc(C(=O)NCCCCc2cccc(C3(C(=O)O[C@H]4CN5CCC4CC5)CCCCC3)c2)c(Cl)cc1CNC[C@H](O)c1ccc(O)c2[nH]c(=O)ccc12", "assay-metric": "IC50", "unit-of-measure": "nM", "measured-value": 3.5}
{"line-notation": "O=C(CCCc1cccc(C2(C(=O)O[C@H]3CN4CCC3CC4)CCCCC2)c1)NCCCCCNC[C@H](O)c1ccc(O)c2[nH]c(=O)ccc12", "assay-metric": "IC50", "unit-of-measure": "nM", "measured-value": 6.7}

Numbers sourced from patent US10005771B2.
